test_description: soluble on expression in E. coli; label from the status in PepcDB or PDB records
value_type: soluble on expression in E. coli

MSLPKPQLRIIAGDFEDPRIIALLAHHFATMRSTGPEESCHVMPLGTMRQADLDFFAAWDGDALAGFGAVKQLGDGHGEIKSMHTAAAYRGRGVGQAVLDHLSTHARALGLQRLSLETGAGDFFVPARAMYARNGFQTCDPFGDYKPDPNSVFMTRMLEGHHHHHH; not soluble
MTITQRDASSADAICLSALGMQVFLDTYATQGIRESIAREALDAFSPQAFAHLLAEPATLIIVAESQGHLIGFAQFALRTDHPMLGIPTAAELQRLYVQERFTGRGVGRLLLEAAEQRAAAGNATLLWATVWVGNPRALGVYPRQGYEVKGSPRYVFQGETHENCLFAKAIVKAVR; not soluble

---

test_description: soluble on expression in E. coli; label from the status in PepcDB or PDB records
value_type: soluble on expression in E. coli

Worked examples, 5 sequences total:
MSDNALSPQKNHRRLAETLVDRFAQRMRDGVLVRGEKLPSEIHIMEAEGVSRTVVRDALSRMQAAGLVETRHGVGTFVLDMPPPEGFSVGPATIASVADVLNLLEFRLSLEVEAAGLAAQRRSPEALLELKRAFDALLEGPQKSGTTINADFQFHLKIAKASGNAYLIDIMKHLGTKLIPRTRMNSAYTGQSDRSAYLAGINAEHRQIYNAIAEGNVDAARAAMYLHLNGSRMRLRRTQALYSD; not soluble
MEKGWKRADLHVHTTCSFDVLPAKDLNPLSLYEKSLEIGMDFVTFTDHDTVEAYEILGWDREKLTPGAEMTLYDPEFAGHTLHINVFELDREYFSELREIAEIEHDLKSFTGYLKRHRLPFVYNHPFWFEFHRQPNPSAVPKLAKLFPVLEYNMHELKQKNELTIALAERFGKSIVATTDTHTGKMGQVYTLAKGDSFREYFRNIEKGRNYIVTGDLTRELLIEEMNTWIDLIFEKSQKNRDIKNYLTGIKSLDALVKISRSTLLNYSPRLNRTAMNLFYMISNTGLPASFYIHSEKSFAREIEKDIEINNRK; not soluble
MRKKDAYISQVKVRQDPVNQLAVEMRAKRFGLTIEEAKNPLAGSYVGRLCLQGVLTQDQYDATQKYLEVRNDYSCAKGLPSAVYDEKPSSSDDKAREKWVERATEQFCNTQKVLKEAQCLYRQHNLYAALQYLVMEDQELPHLVNALRIALNTLQKYFDPKSKWEMFYCYEKLLKNR; not soluble
DYKYVLKGHEDIRQDSLVMQLFGLVNTLLKNDSECFKRHLDIQQYPAIPLSPKSGLLGWVPNSDTFHVLIREHRDAKKIPLNIEHWVMLQMAPDYENLTLLQKIEVFTYALDNTKGQDLYKILWLKSRSSETWLERRTTYTRSLAVMSMTGYILGLGDRHPSNLMLDRITGKVIHIDFGDCFEAAILREKYPEKVPFRLTRMLTYAMEVSGIEGSFRITCENVMRVLRDNKESLMAILEAFALDPLIHWGFD; not soluble
MLESSLTFLLLPVGFPGEVLVTLARRAREAMPVPSLWLASTDPLEPPIEAYSWERMQFDAEKVNEHIHSVLYDYVREGIRIIGVVDADGYIPGFNFVFGLASTALGVATVYTRRLKTGGNGLYTERLLKEVLHEAGHLLGLDHCSNRECVMSFSRSVEEVDRKAPLFCSSCKAKLVLKYGSRGQLEHHHHHH; soluble

# input // soluble on expression in E. coli lookup, key: `MKKNLLLLLCLFCLVNVCHAKAKDTFTVFQLNLWHGCTKVPNGDQGIIDVLDQMDADVVFLCEIRDGKQFIPHVIEELEKRGKHYYGETFDLAIGVLSKFKPDSWTKCCIVPGDEGRAMVKMVATIEGQPVSFYSCHLDYRHYQCYMPRGYNGTTWKKMDKPITDEEEVLKANRQSFRDETIRAFIQEVQSDIQQGRPIIMGGDFNEPSHLDWQADTKDLWDHNGAIIHWDCSMMLSKAGFKDAYREKFPNTVRYPGFTFPAGNKLAEEAKLEKLAWAPEADERDRIDFIYYYPLESMLSMKDSKLVGPSETVVRGKITENDSKDKILTPSCIWPSDHKGNLATFKIRKKRLEHHHHHH`
# output not soluble

---

test_description: soluble on expression in E. coli; label from the status in PepcDB or PDB records
value_type: soluble on expression in E. coli

MVATLIIIRGNSASGKSTIAKQLQAELGENTLLLSQDYLRREMLGTKDGENTTTIPLLINLLNYGYHNCSYIILEGILRSDWYTPVWKHILKHNPNNTYAYYYDLSFQETVKRHSTR; not soluble
MAFISFRDFMEKAVKDYYSSQRALKDFFTAPELDRAFGEALAEFFSQHLSEFERPALVELGAGRGLLAYDILNYYRANYPDLFNRLKYYIYEFSPYLISKQREVLKNFKNVEWVEELPKVEGIVFSNEFFDALPVHIVKGGKELYVDEKGSEVWLSLENEKVKEFLRRMNYENLNQIVEVCLDCIDMLKKISESLVEGYHFVIDYGYTSEEITKYPEGTVVAYKEHKVVKDFLKEAGNADITAHVNFSALMEYGRDFGLETILFQSQRDFLMHIPTFLNELEKLSWEESAESVERLSRLKTMLISMGDRFKVLLQRKLSQLEHHHHHH; not soluble
MKIKTLLSIITAMALLILGTEVATAQSTGVPTIDSGSPESNQPLNDTMITTKVKAELAIAEGIKSGDISVETVNGVVILTGTQPNEMLIKKAEEVAKSVKDVKQVDISGLTVNTTTAD; not soluble

---

test_description: soluble on expression in E. coli; label from the status in PepcDB or PDB records
value_type: soluble on expression in E. coli

PEGSRDILFEECTIKNNIENILRNSYINVGYEEVRSPTLEFYDVYNLENQPISQEKMYKLFDNTGRILVLRPDMTTPIARICATKLKNRVYPLKLSYTGNIYRMNKALNGKISEITQSGIEILGFSSLKADAEVIITAIKAILKTGLKNFKIEIGQVEFFKSIISDTALKEQDTEKLRNFIENKNFSKVEEFILRNSDLIGETSSKVLMNLPNLFGGKEVIEKAEQLTSNKQAIEALKKVRDLYDIVKRAGFGEYILIDLGMVQHINYYTGLIFRGYAHGIGDDLLSGGRYDKLLGQFGYDIPATGLAINVDNLVAALDDCVRENL; not soluble
MTMRNFDLSPLMRQWIGFDKLANALQNAGESQSFPPYNIEKSDDNHYRITLALAGFRQEDLEIQLEGTRLSVKGTPEQPKEEKKWLHQGLMNQPFSLSFTLAENMEVSGATFVNGLLHIDLIRNEPEPIAAQRIAISERPALNS; not soluble
MGSDKIHHHHHHMQQKKTTKEEYQKCVNVVVEYINQHLGEDIDLKSLARISNFSPFYFHRIMKAFLGEPIGTFIVRTRTEAAARLLRYSDIPIADIAYRIGYSSPSSLSKVFRQFYGISPLEYRNNKNFVIMKPAIIRPDLELKSEIKSIPARNVIYIRLSGDYKLNDYGGTWGRLWQFIKEQKLPMGDFSPLCIYHDDPKVTPAEKLRTDVCMVMPVQVAPKGDVGFKTLPAGRYAIFLYKGTYDNLQAVYDTIYGKCLPEMECTLRDEPSAERYLNNPCETAPEELLTEIYIPVE; not soluble

---

test_description: soluble on expression in E. coli; label from the status in PepcDB or PDB records
value_type: soluble on expression in E. coli

MDETTIRRLTEEDVDIFRAMRLEALRTEPAAYASTAADWEKLSADEWRTRLTQNNVFAAFWNDAPVGIMGLMRQGSSKMAHRATLIMVYVRAEARGTGIARALLEAVKSFAGDNGIRQIELAVSAENPAAASFYKRAGFSQIGCVPGGILHEGREIDDIMMACRVDAEGKE; not soluble
SLKGSSAQVLVVEGEQGLNNDLSHSLEANGYLVTQCFNGKALQKEGLDDQLDLIILGATSESTEADLIQSIVMLREAVSTPIMLLGQKDCVESRIAFYTAGVDDYLTKPVNFSEFLIRVAVILKRVCSDSQMPKHADLLSGLDFEMDKRKGCIRSDEVELLLTPVEFKLLWALVSSGGRVLTKAFLYRNVLNRDFVQHDRSVDVHISRLRAKLSGVGVDTSRLETVHGEGYCYKEG; soluble
MSDANPVFADYFKSWYGTYKIPGKSRTTVVRYETIYKKLNAYYGKAKLAKVTRKSYQIFMNEYGKKHAKDTVYKTNGSIRSCVRDGVADGIIQKDFTQKINLTWNLEHHHHHH; not soluble
MREETKCALIIDESLPLGLIANTAAILGAALGKNKPDLIGETVTDGSGIDHLGIVKIPIPILKGNAELLHQLSQKLLTDEFNDILTVDFTDVAQSIHTYEAYIEAFQSTAASDYRYFGIGICGDKKKVARLTGSLGLLRLEHHHHHH; soluble

---

test_description: soluble on expression in E. coli; label from the status in PepcDB or PDB records
value_type: soluble on expression in E. coli

MGSDKIHHHHHHMNGQLLRQIANYQILYSACCKDLGLLRGKIGISLFFFHYAHFCGDSLYSDYANELIGDVYDDIRIDTPWGIRNGLLGIGWGLEYFMQKGFVECGSNDILTELDNKIMERDLRRVKDYSFDTGIEGLAWYVLIRLLSSERYLQKPFDKMYLDDLRGVCENVPNKVCHPGISLLLDYLVGKQIDDWYLVVLGKITSQRTGGEKKEALLWVEGLKYLLR; not soluble
MSLADIFDFPRDARNVARADGKEADMGGEAPQTMLMRPQGVPDQVWNAVLSVDRMRRLKGMTYREIPVPNSMANFGIGVALECDETYASGWIMILYSLKFREDWHSHWRCVAFASLPLPDKEDDCLTPGMYWDMMMERLNPNDSEHVSGTVTVTQNTAFGHDPDVPRVGCEIRVSWTPLDYADGGLDAGSQVGQWASFLRSMTQSEEEGHHHHHH; soluble
RCPKGSKAYGSHCYALFLSPKSWTDADLACQKRPSGNLVSVLSGAEGSFVSSLVKSIGNSYSYVWIGLHDPTQGTEPNGEGWEWSSSDVMNYFAWERNPSTISSPGHCASLSRSTAFLRWKDYNCNVRLPYVCKFTD; soluble
MSLNKEQRRITAEELQAHFEESTLSVQMIAEKLNVTTEDVEKVLAMTAPLGIFSHQLQRFIHLVWDVRDVINDNIKGNGQTPEPYTYLKGEKEDYWFLR; not soluble
